Numbers sourced from PubChem BioAssay (NCI).

Test system: KM12 colon
Assay: NCI-60 one-dose screen, 48 h (100 = growth as untreated, 0 = no growth, -100 = all killed)
Settings: 10 µM unless noted
Method: Growth inhibition of the KM12 human tumor cell line is measured as a screen for anti-cancer activity. Cells are grown in 96 well plates and exposed to the test compound for 48 hours. Compounds are tested at a single concentration, which is 10^-5 M for most compounds. The reported endpoint is percent growth (GI% or GIPRCNT), where numbers from 0 - 100% represent growth inhibition, and numbers from -100% - 0 represent cell death. For example, a value of 40 represents 60% growth inhibition. […]
Compounds without any hit were thinned out: in the full panel of roughly 83,000, 20% have a hit.
Parameter: growth. Scope: all listed entries.

{"columns": ["COMPOUND", "UNITS LABEL", "growth"],
 "data": [
  ["COCCOCCOCc1n(Cc2ccc3ccccc3c2)c2ccccc2[n+]1Cc1ccc2ccccc2c1", "%", -25.9],
  ["COc1ccc(-n2cc(-c3ccc(Cl)c(Cl)c3)[nH]c2=O)cc1OC", "%", 95.3],
  ["O=c1nc(-c2ccccc2)c2cc(-c3ccc(N4CCCC4)nc3)ccc2[nH]1", "%", 56.7],
  ["COc1ccc(-c2cc(-c3nnc(SCC(=O)Nc4ccc(/C(C)=N\\O)cc4)n3-c3ccccc3)c3cc(OC)ccc3n2)cc1", "%", 61.1],
  ["O=C(O)c1ccc(-n2cc(/C=N/Nc3ccc(Cl)cc3Cl)c(-c3ccccc3)n2)cc1", "%", 83.4],
  ["O=C(O)C(C(=O)O)c1cccc2ccccc12", "%", 109],
  ["C=CCn1c(CN2CCN(c3cc4c(cc3F)c(=O)c(C(=O)O)cn4C3CC3)CC2)n[nH]c1=S", "%", 99.4],
  ["COc1ccc(C2=NN(c3ccc(S(N)(=O)=O)cc3)C(c3ccc(Cl)cc3)C2)c(O)c1 (centres undefined)", "%", 41.3],
  ["COc1ccc2c(c1)Oc1nc(N)c(C#N)c(N)c1C2Sc1ccc(SC)cc1 (centres undefined)", "%", 53.3]
]}

---

Test system: COLO 205 colon
Test: NCI-60 one-dose screen, 48 h (100 = growth as untreated, 0 = no growth, -100 = all killed)
Conditions: 10 µM unless noted
Compounds without any hit were thinned out: in the full panel of roughly 83,000, 20% have a hit. Activity calls are given as the source filed them. The calls were made as follows: active = growth percent below 10; inactive = the rest.
OBSERVABLE: growth

{"columns": ["COMPOUND", "REPORTED MEASUREMENT"],
 "data": [
  ["COc1ccc2nc3c(n2c1)C(=O)C(=O)c1ccccc1-3", "42.7% (inactive)"],
  ["O=C(Nc1ccc(S(=O)(=O)NC2CCCCCC2)cc1)C(c1ccccc1)S(=O)(=O)c1ccc(F)cc1 (stereo not drawn)", "-18% (active)"],
  ["COc1ccccc1-c1ccc2nc(NC(=O)Nc3cc(C(F)(F)F)cc(C(F)(F)F)c3)sc2c1", "-84.8% (active)"],
  ["O=C1Nc2ccc(Br)cc2/C1=N\\N=C/c1cn(Cc2ccccc2)c2ccccc12", "114% (inactive)"],
  ["Nc1c(C(=O)Nc2ccccn2)sc2nc3c(cc12)C(=O)CCC3", "7.57% (active)"],
  ["O=C(O)c1cc(N=Nc2ccc(-c3ccc(N=Nc4c(S(=O)(=O)O)cc5ccc(Nc6ccccc6)cc5c4O)cc3)cc2)ccc1O", "114% (inactive)"],
  ["OCCNc1nc(NCCO)nc(Nc2ccc(C3=NN(c4cc(Cl)cc(Cl)c4)C(c4ccc(C(F)(F)F)cc4)C3)cc2)n1 (stereo not drawn)", "25.3% (inactive)"],
  ["COc1cc(/C=C/C(=O)c2ccc(NC(=O)CSc3nnc(-c4cc(OC)c(OC)c(OC)c4)n3-c3ccccc3)cc2)cc(OC)c1OC", "10.2% (inactive)"]
]}

---

Tested on: PC-3 prostate
Assay: NCI-60 one-dose screen, 48 h (100 = growth as untreated, 0 = no growth, -100 = all killed)
Conditions: 10 µM unless noted
Experimental: Growth inhibition of the PC-3 human tumor cell line is measured as a screen for anti-cancer activity. Cells are grown in 96 well plates and exposed to the test compound for 48 hours. Compounds are tested at a single concentration, which is 10^-5 M for most compounds. The reported endpoint is percent growth (GI% or GIPRCNT), where numbers from 0 - 100% represent growth inhibition, and numbers from -100% - 0 represent cell death. For example, a value of 40 represents 60% growth inhibition. […]
Compounds without any hit were thinned out: in the full panel of roughly 83,000, 20% have a hit.
Parameter: growth. Scope: all listed entries.

{"columns": ["COMPOUND", "growth [%]"],
 "data": [
  ["OCCNc1nc(NCCO)nc(Nc2ccc(C3=NN(c4cc(Cl)cc(Cl)c4)C(c4ccccc4)C3)cc2)n1 (configuration not stated)", 24.5],
  ["C=C1C(=O)O[C@H]2[C@H]1CC/C(C=Nc1c(N)cc(F)cc1Br)=C\\CC[C@@]1(C)O[C@@H]21", 58.3],
  ["COc1ccc(C(=O)c2cc(F)c(F)c(OC)c2F)cc1OC(=O)CCl", 38.4],
  ["CCOC(=O)/C=C1\\SC(=Nc2ccc(C#N)cc2)N(CCN2C(=O)/C(=C/C(=O)OCC)SC2=Nc2ccc(C#N)cc2)C1=O", 39.6],
  ["O=C(O)c1cc(N=Nc2ccc(-c3ccc(N=Nc4c(S(=O)(=O)O)cc5ccc(Nc6ccccc6)cc5c4O)cc3)cc2)ccc1O", 96.4],
  ["C#C[C@@]1(O)[C@@H](CO)O[C@@H](n2ccc3c(N)ncnc32)[C@@H]1O", -21.4],
  ["COc1cc2nc3c(=O)n(-c4ccc(C#N)cc4)cnn3c(=O)c2cc1OC", 98.3],
  ["CCN(CC)c1ccc2c(c1)Oc1nc(N)c(C#N)c(N)c1C2Sc1ccc(OC)cc1 (configuration not stated)", 1.15],
  ["C[C@H](Oc1cc(-c2cnn(C3CCNCC3)c2)cnc1N)c1c(Cl)ccc(F)c1Cl", 45.9],
  ["N#Cc1c(-c2ccc(F)cc2)nc(N=Nc2c(O)[nH]c3ccc(Cl)cc23)nc1N1CCOCC1", 61],
  ["COc1ccc(C2C(c3ccccc3)C(=O)N2c2cc(OC)c(OC)c(OC)c2)cc1I (configuration not stated)", 22.2],
  ["C=C1C(=O)O[C@H]2[C@H]1CC/C(COC(=O)CCC(=O)OC/C1=C/CC[C@@]3(C)O[C@H]3[C@H]3OC(=O)C(=C)[C@@H]3CC1)=C\\CC[C@@]1(C)O[C@@H]21", 60],
  ["C=C(C)[C@@H]1CC[C@]2(C(=O)OCCOCCOCC[P+](c3ccccc3)(c3ccccc3)c3ccccc3)CC[C@]3(C)[C@H](CC[C@@H]4[C@@]5(C)CC[C@H](C)C(C)(C)[C@@H]5CC[C@]43C)[C@@H]12", -84.9],
  ["CSc1nc(-c2ccco2)c2c(N)[nH]nc2n1", 101],
  ["CC1=C(CCCOC(=O)NCCCl)C2=C(C)C3(CC3)[C@@](C)(O)C(=O)C2=C1", 38],
  ["O=C1C(=O)c2c(nc3ccc(C(F)(F)F)cn23)-c2ccccc21", -85],
  ["c1ccc2nc(N3CCOCC3)c(N3CCCCC3)nc2c1", 90.8],
  ["COc1ccc(Sc2[nH]c(C(C)=O)c3ccccc23)cc1", 52.1],
  ["N#Cc1ccc(N2Cc3cc(Cl)ccc3OC3=C2C(=O)N(Cc2ccc(F)cc2)C3=O)cc1", 11.8],
  ["COc1ccccc1Nc1nnc(-c2ccc(Cl)cc2)o1", 56.7],
  ["CC(C)(C)c1ccc(O)c(Cc2cc(C(C)(C)C)ccc2O)c1", 12.5],
  ["C=C1C(=O)O[C@H]2[C@H]1CC/C(COC(=O)c1c[nH]c3ccccc13)=C\\CC[C@@]1(C)O[C@@H]21", -52.1],
  ["C=C1C(=O)O[C@H]2[C@H]1CC/C(COC(=O)n1ccnc1)=C\\CC[C@@]1(C)O[C@@H]21", 90.1],
  ["COc1cc(C2=NN(C=O)C(c3cccc(Nc4ccnc5cc(C(F)(F)F)ccc45)c3)C2)cc(OC)c1OC (configuration not stated)", 31.7],
  ["COc1ccccc1-c1ccc2nc(NC(=O)Nc3cc(C(F)(F)F)cc(C(F)(F)F)c3)sc2c1", 13.5],
  ["COC(=O)c1cncc(C(=O)Nc2ccc(-n3cnc4ccccc43)cc2)c1", 92.1],
  ["Nc1ccc2c(c1)C(=O)C(=O)c1c-2nc2ccccn12", 24],
  ["COc1cc(NC(=O)COc2cc(C)nc3ccc(OC)cc23)cc(OC)c1", 81.9],
  ["CCCCCCCc1n(Cc2ccc3ccccc3c2)c2ccccc2[n+]1Cc1ccc2ccccc2c1", -88.7],
  ["CC1(C)Cc2c(Br)c(Br)c(Br)c(OCC(O)CN3CCOCC3)c2O1 (configuration not stated)", 9.22],
  ["COc1cc(/C=C/C(=O)/C=C/c2cc3ccc(Cl)cc3[nH]c2=O)ccc1O", 56.2],
  ["COc1ccc(/C=C/C(=O)C(CC2CCC2)C(=O)/C=C/c2ccc(OC)c(OC)c2)cc1OC", -8.3],
  ["Cn1c2ccccc2c2c(OC(=O)c3ccccc3)c3c(nc21)-c1ccccc1C3", 87.3],
  ["S=c1ssnc1-c1cc2ccccc2o1", 14.9],
  ["COCCc1n(Cc2ccc3ccccc3c2)c2ccccc2[n+]1Cc1ccc2ccccc2c1", -14.5],
  ["Cc1nnc(/N=C2\\NC(=O)/C(=C/c3ccsc3)S2)s1", 89.6],
  ["Cc1nc2sc(C(=O)Nc3ccccc3)c(N)c2cc1C(C)O (configuration not stated)", 21.5]
]}
